- Test system: Mus musculus
- measurementDescription: Toxicity in Swiss albino mouse assessed as loss of righting reflex at 100 mg/kg, sc measured up to 20 mins
- Assay type: organism-based
- Set-up: dose 100 mg/kg, route subcutaneous
- conditionDescription: in vivo
propertyMeasured: Activity

Example results:
                                   molecule  testvalue
0  CCN(CC)CC(=O)Nc1cc(OC)c(OC)cc1Cc1nccc2cc(OC)c(OC)cc12  Non-toxic
1  CCNCC(=O)Nc1c(Cc2nccc3ccccc23)ccc(OC)c1OC  Non-toxic
2  COc1ccc(CC2c3cc(OC)c(OC)cc3CCN2C)cc1OC (racemic)  Non-toxic
3     COc1ccc(Cc2nccc3cc(OC)c(OC)cc23)cc1OC  Non-toxic
4  CCN(CC)CC(=O)Nc1cc(OC)ccc1Cc1nccc2ccccc12  Non-toxic
5   COc1ccc(Cc2nccc3ccccc23)c(NC(=O)CN)c1OC  Non-toxic
6  COc1ccc(Cc2nccc3ccccc23)c(NC(=O)C(C)N)c1OC (configuration not stated)  Non-toxic
7  CCN(CC)CC(=O)Nc1c(Cc2nccc3ccccc23)ccc(OC)c1OC  Non-toxic
8  CCN(CC)CC(=O)Nc1cc(OC)c(OC)cc1Cc1nccc2ccccc12  Non-toxic
9  CCNCC(=O)Nc1cc(OC)c(OC)cc1Cc1nccc2cc(OC)c(OC)cc12  Non-toxic

Ask | Please list Activity recorded for the molecule CCN(CC)CC(=O)Nc1cc(OC)c(OC)cc1C.Cl
Reply | Non-toxic

Ask | Look up Activity of CCN(CC)CC(=O)Nc1c(C)cccc1C and report it.
Reply | Toxic

* * *

- Tested on: Mus musculus
- measurementDescription: Toxicity in Swiss albino mouse assessed as convulsions at 100 mg/kg, sc measured up to 20 mins
- Type: organism-based
- Set-up: dose 100 mg/kg, route subcutaneous
- conditionDescription: in vivo
propertyMeasured: Activity

>>> df
                                   compound    testsystem  testvalue
0  COc1ccc(CC2c3cc(OC)c(OC)cc3CCN2C)cc1OC (racemic)  Mus musculus      Toxic
1                CCN(CC)CC(=O)Nc1c(C)cccc1C  Mus musculus      Toxic
2  CCN(CC)CC(=O)Nc1cc(OC)c(OC)cc1Cc1nccc2ccccc12  Mus musculus  Non-toxic
3     COc1ccc(Cc2nccc3cc(OC)c(OC)cc23)cc1OC  Mus musculus  Non-toxic
4   COc1ccc(Cc2nccc3ccccc23)c(NC(=O)CN)c1OC  Mus musculus  Non-toxic

Ask | Please list Activity recorded for the compound CCNCC(=O)Nc1c(Cc2nccc3ccccc23)ccc(OC)c1OC
Reply | Non-toxic

Ask | Please report the measured Activity for CCNCC(=O)Nc1cc(OC)c(OC)cc1Cc1nccc2cc(OC)c(OC)cc12
Reply | Non-toxic

Ask | Complete the entry with Activity for CCN(CC)CC(=O)Nc1cc(OC)ccc1Cc1nccc2ccccc12
Reply | Non-toxic

Ask | Give me measured Activity, please, for this compound: CCN(CC)CC(=O)Nc1cc(OC)c(OC)cc1Cc1nccc2cc(OC)c(OC)cc12
Reply | Non-toxic

Ask | Provide measured Activity value, entry: CCN(CC)CC(=O)Nc1cc(OC)c(OC)cc1C.Cl
Reply | Non-toxic

Ask | Tell me measured Activity for CCN(CC)CC(=O)Nc1c(Cc2nccc3ccccc23)ccc(OC)c1OC please.
Reply | Non-toxic

Ask | Identify the reported Activity for the following entry. COc1ccc(Cc2nccc3ccccc23)c(NC(=O)C(C)N)c1OC (configuration not stated)
Reply | Non-toxic

These measurements were taken from ChEMBL document CHEMBL3244123.
